Answer each item with its documented TGI.
test system: PC-3 prostate; experiment: NCI tumour cell line growth inhibition, 48 h

[[record]]
molecule = "CN(C)CCCNC(=O)c1cc(NC(=O)CCCn2c3ccccc3c3ccccc32)cn1C"
result = "> 100 µM"

[[record]]
molecule = "CCOC(=O)C1=C(C)N(Cc2ccc(Cl)cc2Cl)C2(O)C(OC)CC(=O)C3C(=O)N(c4ccccc4)C(=O)C132 (configuration not stated)"
result = "15.1 µM"

[[record]]
molecule = "S=C1SC2(CCCCCC2)NC2=C1CCCCC2"
result = "> 100 µM"


Take each entry in turn and give its TGI.
1. N#C/C(=C\N1CCNC1=S)C(=O)c1ccc2ccccc2c1
2. Cc1ccc(-c2n[nH]c(=O)n2N)cc1
3. CNNC1=NS(=O)(=O)c2cc(C(=O)OC)c(Cl)cc2S1
4. COC(=O)c1ccc(/C=N/c2cc(C)nn2-c2ccccc2)cc1

Found:
["> 100 µM", "> 100 µM", "> 10 µM", "> 100 µM"]

----------
Assignment: determine reported TGI for the given molecules.
test system: TK-10 renal; assay: NCI tumour cell line growth inhibition, 48 h

[[record]]
molecule = "CCOc1ccccc1N=NC1C(=O)N(C(=O)CC(=O)Nc2ccccc2Cl)N=C1C (stereo unspecified)"
system = "TK-10 renal"
result = "> 100 µM"

[[record]]
molecule = "CCOC(=O)c1c(N2CCOCC2)[nH]c(=O)c(C(c2ccc(N(C)C)cc2)c2c(O)c(C(=O)OCC)c(N3CCOCC3)[nH]c2=O)c1O"
system = "TK-10 renal"
result = "> 100 µM"

[[record]]
molecule = "Cc1cc(Cl)ccc1OCC(=O)Oc1c(Cl)c(Cl)c(Cl)c(Cl)c1Cl"
system = "TK-10 renal"
result = "69.1 µM"


Respectfully, I request TGI for each entry included below.
1. NC(Cc1ccc2oc3cc(=O)c4ccccc4c-3nc2c1)C(=O)O (stereo unspecified)
2. c1ccc(N=C2SC(c3ccccc3)CN2C23CC4CC(CC(C4)C2)C3)cc1 (stereo unspecified)

Found:
> 97.2 µM
> 100 µM

Record TGI for all entries; do not skip any.
1. O=c1cc(-c2ccccc2)oc2cc(OCc3cn(Cc4ccc(F)cc4)nn3)cc(O)c12
2. CP(=O)(CCSc1ccccc1)c1ccccc1 (stereo unspecified)
3. Cc1ccccc1N=Nc1ccc(N=Nc2c(O)ccc3cc(S(=O)(=O)O)cc(S(=O)(=O)O)c23)c(C)c1
4. CC(C)c1cccc2sc(NC(=O)C(=O)CC(=O)c3ccc(F)cc3)nc12
5. O=C(O)C1(C(=O)O)CCN(S(=O)(=O)c2ccccc2)CC1
6. CCCN(CCC)C(=O)Cc1c2n(c3ccccc13)CCCc1ccccc1-2

Found:
["28.6 µM", "> 100 µM", "> 100 µM", "> 100 µM", "> 100 µM", "29.5 µM"]

----------
test system: 786-0 renal; assay: NCI tumour cell line growth inhibition, 48 h
Give measured TGI for each item. Keep answers brief.
Numbers only, in µM.

[[record]]
molecular_string = "CCN(CC)CCNC(=O)c1ccccc1Nc1c(Cl)cccc1Cl"
numeric_readout = 19

[[record]]
molecular_string = "CCCCCCCCCCCCCCCC[N+](C)(C)C"
numeric_readout = 2.43

[[record]]
molecular_string = "CCN(CCc1ccc(F)cc1)c1ccc(CO)c(Cl)c1"
numeric_readout = 27

[[record]]
molecular_string = "N[C@H]1CCc2c1nc1c(c2-c2ccccc2)CC[C@@H]1N"
numeric_readout = 28.6

[[record]]
molecular_string = "CN(C)c1ncc(-c2c[nH]c3ccccc23)nc1-c1c[nH]c2ccccc12"
numeric_readout = 4.07


# ---- query compound ----
Lookup: Look up TGI for this compound: COc1cc(/C=C\c2cc(/C=C\c3ccc(O)c(OC)c3)n(C(=O)Nc3ccc(C(F)(F)F)cc3)n2)ccc1O
Found: 7.52

Hey, just so you know, these numbers are from PubChem BioAssay (NCI).
